# systemName: GABA-A receptor; alpha-3/beta-3/gamma-2 (Homo sapiens, UniProt P18507+P28472+P34903)
# Sequence (P18507 whole entry): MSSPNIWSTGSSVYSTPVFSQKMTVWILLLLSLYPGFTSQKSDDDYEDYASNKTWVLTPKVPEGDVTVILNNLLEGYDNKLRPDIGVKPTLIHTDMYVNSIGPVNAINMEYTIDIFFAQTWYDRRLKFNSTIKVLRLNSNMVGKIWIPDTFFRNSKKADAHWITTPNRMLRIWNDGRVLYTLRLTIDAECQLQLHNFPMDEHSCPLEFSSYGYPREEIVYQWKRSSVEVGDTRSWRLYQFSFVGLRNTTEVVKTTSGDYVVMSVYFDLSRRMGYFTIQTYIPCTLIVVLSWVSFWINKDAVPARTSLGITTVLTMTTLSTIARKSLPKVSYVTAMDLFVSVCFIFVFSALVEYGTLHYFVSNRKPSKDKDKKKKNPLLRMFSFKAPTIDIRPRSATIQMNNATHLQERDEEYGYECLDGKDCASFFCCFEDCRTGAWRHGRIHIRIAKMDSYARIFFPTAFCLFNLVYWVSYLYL
# Sequence (P28472 whole entry): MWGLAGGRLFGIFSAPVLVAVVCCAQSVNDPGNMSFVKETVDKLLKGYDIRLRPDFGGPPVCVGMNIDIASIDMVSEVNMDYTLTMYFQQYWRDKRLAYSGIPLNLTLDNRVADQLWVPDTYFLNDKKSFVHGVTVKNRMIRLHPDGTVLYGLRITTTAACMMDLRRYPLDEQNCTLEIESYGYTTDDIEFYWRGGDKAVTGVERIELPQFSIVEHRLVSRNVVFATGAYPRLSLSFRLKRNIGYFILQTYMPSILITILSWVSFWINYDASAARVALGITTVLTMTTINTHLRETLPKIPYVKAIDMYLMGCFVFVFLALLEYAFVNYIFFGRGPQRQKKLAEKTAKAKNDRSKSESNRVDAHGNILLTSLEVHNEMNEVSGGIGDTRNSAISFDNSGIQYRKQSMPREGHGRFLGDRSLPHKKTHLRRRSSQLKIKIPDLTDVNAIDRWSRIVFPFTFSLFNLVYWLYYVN
# Sequence (P34903 whole entry): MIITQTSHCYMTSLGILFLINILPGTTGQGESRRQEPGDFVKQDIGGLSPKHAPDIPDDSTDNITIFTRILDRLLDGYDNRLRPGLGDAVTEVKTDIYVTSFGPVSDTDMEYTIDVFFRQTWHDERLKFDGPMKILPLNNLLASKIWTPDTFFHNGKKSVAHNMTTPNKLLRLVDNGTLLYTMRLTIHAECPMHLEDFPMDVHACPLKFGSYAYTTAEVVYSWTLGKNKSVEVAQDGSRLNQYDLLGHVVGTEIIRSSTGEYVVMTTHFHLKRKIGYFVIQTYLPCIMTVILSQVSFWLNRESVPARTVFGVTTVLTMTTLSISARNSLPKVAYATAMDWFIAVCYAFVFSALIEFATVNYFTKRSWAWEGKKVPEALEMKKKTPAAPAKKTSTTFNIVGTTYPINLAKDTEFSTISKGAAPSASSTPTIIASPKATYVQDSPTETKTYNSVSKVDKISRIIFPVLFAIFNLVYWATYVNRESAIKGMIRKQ
# assayExplanation: Inhibition of [3H]Ro-151788 binding to recombinant human gamma-aminobutyric-acid A receptor alpha-3-beta-3-gamma-2 subtype expressed in L (tk-) cells
Decision: Ki beneath 30 nM gives YES; Ki meeting or exceeding 30 nM gives NO.

| smilesStructure | discreteLabel |
| --- | --- |
| CSOc1ccc(COc2nn3c(-c4ccccc4)nnc3c3c2C2CCC3CC2)cc1 | NO |
| c1ccc(-c2nnc3c4c(c(OCc5ccc6ccccc6n5)nn23)C2CCC4CC2)cc1 | NO |
| c1ccc(-c2nnc3c4c(c(OCc5nc6ccccc6s5)nn23)C2CCC4CC2)cc1 | NO |
| c1ccc(-c2nnc3c4c(c(OCc5ncccn5)nn23)C2CCC4CC2)cc1 | NO |
| OCCCCOc1nn2c(-c3ccccc3)nnc2c2c1C1CCC2CC1 | YES |

I'd appreciate it if you could check whether FC(F)(F)Oc1ccc(COc2nn3c(-c4ccccc4)nnc3c3c2C2CCC3CC2)cc1 has Ki smaller than 30 nM.
NO

Lab note: Ki threshold 30 nM. Does this molecule come in strictly under it? N#Cc1ccccc1COc1nn2c(-c3ccccc3)nnc2c2c1C1CCC2CC1
NO

Ki strictly < 30 nM for this molecule? OCc1cccc(COc2nn3c(-c4ccccc4)nnc3c3c2C2CCC3CC2)c1
NO

Report whether reported Ki is lower than 30 nM (strictly) for c1ccc(-c2nnc3c4c(c(OCc5nnc[nH]5)nn23)C2CCC4CC2)cc1
YES

In plain terms, does Cc1ccc(COc2nn3c(-c4ccccc4)nnc3c3c2C2CCC3CC2)nc1 come in under 30 nM for Ki?
YES

###

# systemName: GABA-A receptor; alpha-2/beta-3/gamma-2 (Homo sapiens, UniProt P18507+P28472+P47869)
# Sequence (P18507 whole entry): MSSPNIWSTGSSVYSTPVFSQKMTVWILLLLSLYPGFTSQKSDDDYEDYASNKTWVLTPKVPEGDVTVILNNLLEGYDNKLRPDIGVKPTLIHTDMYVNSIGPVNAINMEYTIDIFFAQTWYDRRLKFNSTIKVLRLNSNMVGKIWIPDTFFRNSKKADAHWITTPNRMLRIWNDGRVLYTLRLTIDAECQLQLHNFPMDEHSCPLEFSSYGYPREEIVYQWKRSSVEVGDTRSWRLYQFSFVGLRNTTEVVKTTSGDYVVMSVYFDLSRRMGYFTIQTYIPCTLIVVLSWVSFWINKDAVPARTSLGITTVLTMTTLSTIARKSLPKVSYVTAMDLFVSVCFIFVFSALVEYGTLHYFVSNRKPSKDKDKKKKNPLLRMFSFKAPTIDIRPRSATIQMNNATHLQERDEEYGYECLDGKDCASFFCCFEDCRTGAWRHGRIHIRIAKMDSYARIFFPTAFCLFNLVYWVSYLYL
# Sequence (P28472 whole entry): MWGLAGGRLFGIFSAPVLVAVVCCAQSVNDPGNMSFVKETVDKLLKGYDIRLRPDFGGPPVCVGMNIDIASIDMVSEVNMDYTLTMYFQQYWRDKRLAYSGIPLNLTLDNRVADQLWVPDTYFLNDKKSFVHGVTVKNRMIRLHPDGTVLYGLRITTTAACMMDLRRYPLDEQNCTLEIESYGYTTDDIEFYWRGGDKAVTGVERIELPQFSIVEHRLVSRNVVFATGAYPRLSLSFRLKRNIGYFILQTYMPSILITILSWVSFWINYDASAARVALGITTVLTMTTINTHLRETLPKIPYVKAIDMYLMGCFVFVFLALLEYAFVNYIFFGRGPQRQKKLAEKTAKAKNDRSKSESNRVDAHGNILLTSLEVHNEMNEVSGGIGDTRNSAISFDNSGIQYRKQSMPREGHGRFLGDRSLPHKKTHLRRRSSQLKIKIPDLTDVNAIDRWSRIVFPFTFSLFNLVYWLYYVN
# Sequence (P47869 whole entry): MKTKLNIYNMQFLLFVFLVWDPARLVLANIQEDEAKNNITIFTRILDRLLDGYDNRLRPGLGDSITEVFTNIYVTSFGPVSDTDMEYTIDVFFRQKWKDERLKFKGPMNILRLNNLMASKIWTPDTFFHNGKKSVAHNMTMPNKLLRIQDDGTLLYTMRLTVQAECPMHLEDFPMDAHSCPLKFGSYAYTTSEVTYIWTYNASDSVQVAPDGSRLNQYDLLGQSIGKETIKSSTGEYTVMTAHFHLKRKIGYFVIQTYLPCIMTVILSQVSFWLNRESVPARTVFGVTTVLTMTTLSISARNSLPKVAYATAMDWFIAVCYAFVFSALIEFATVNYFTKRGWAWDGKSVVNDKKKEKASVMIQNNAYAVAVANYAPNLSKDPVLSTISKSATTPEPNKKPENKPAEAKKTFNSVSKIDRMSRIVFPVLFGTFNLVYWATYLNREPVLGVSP
# assayExplanation: Inhibition of [3H]Ro-151788 binding to recombinant human gamma-aminobutyric acid A receptor alpha-2-beta-3-gamma-2 subtype expressed in L (tk-) cells
Reported pKi values are given for each entry in this list.
The value called pKi is obtained by taking minus log10 of the concentration in mol/L.

The examples below pair each entry with its known result.
| smilesStructure | systemName | quantityMeasured | measured |
| --- | --- | --- | --- |
| c1ccc(-c2nnc3c4c(c(OCc5cnccn5)nn23)C2CCC4CC2)cc1 | GABA-A receptor; alpha-2/beta-3/gamma-2 (Homo sapiens, UniProt P18507+P28472+P47869) | pKi | 8.19 |
| Cc1cc(COc2nn3c(-c4ccccc4)nnc3c3c2C2CCC3CC2)sn1 | GABA-A receptor; alpha-2/beta-3/gamma-2 (Homo sapiens, UniProt P18507+P28472+P47869) | pKi | 6.89 |
| Cn1nnc(COc2nn3c(-c4ccccc4)nnc3c3c2C2CCC3CC2)n1 | GABA-A receptor; alpha-2/beta-3/gamma-2 (Homo sapiens, UniProt P18507+P28472+P47869) | pKi | 7.24 |
| c1ccc(-c2nnc3c4c(c(OCc5ccccn5)nn23)C2CCC4CC2)cc1 | GABA-A receptor; alpha-2/beta-3/gamma-2 (Homo sapiens, UniProt P18507+P28472+P47869) | pKi | 7.59 |
| Cc1cnc(COc2nn3c(-c4ccccc4)nnc3c3c2C2CCC3CC2)s1 | GABA-A receptor; alpha-2/beta-3/gamma-2 (Homo sapiens, UniProt P18507+P28472+P47869) | pKi | 7.55 |

I am curious: what pKi value has been reported for Fc1ccc(-c2nnc3c4c(c(OCc5ccccn5)nn23)C2CCC4CC2)cc1 ?
6.74

I am curious: what pKi value has been reported for COc1cccnc1COc1nn2c(-c3ccccc3)nnc2c2c1C1CCC2CC1 ?
8.04

// query pKi value for entry O=C(Nc1ccccn1)c1nn2c(-c3ccccc3)nnc2c2c1C1CCC2CC1
6.54

Form field: reported pKi of COc1ccc(-c2nnc3c4c(c(OCc5ccccn5)nn23)C2CCC4CC2)cc1
7.13

Dear colleague, I am looking for the recorded pKi of the following compound: c1ccc(-c2nnc3c4c(c(OCc5nnc[nH]5)nn23)C2CCC4CC2)cc1
7.60
